Molecular target: 3',5'-cyclic-AMP phosphodiesterase 4B (Homo sapiens)
Experiment: qHTS Assay for Inhibitors of PDE-IV (AID 607); also: % of control where 0% means no effect
Details: HEK293 ACTOne CNG channel cells, membrane potential fluorescence; series mostly up to 22.9 µM
Records with an inconclusive call do not appear. The source made the active and inactive calls. Calls follow the shape of the dose curve; as a rule, active = well fitted activation curve with a large enough effect in the main read-out, with a control signal flat (not every such curve was filed as active); inconclusive = small, poorly fitted or top-dose-only effect, or effect the other way, or a change in a side signal; inactive = flat fitted curve, though single readings scatter.
MEASURED ENDPOINT: outcome

>>> result("CN(C(=O)CCCOc1ccc2[nH]c(=O)ccc2c1)C1CCCCC1")
"inactive"
>>> result("CC(C)[N+](C)(CCOC(=O)C1c2ccccc2Oc2ccccc21)C(C)C")
"inactive"
>>> result("CCCOc1ccccc1-c1nc2n[nH]nc2c(=O)[nH]1")
"inactive"
>>> result("Cc1nc2ccccn2c(=O)c1CCN1CCC(C(=O)c2ccc(F)cc2)CC1")
"inactive"
>>> result("C[n+]1cc2c3c(ccc2c2ccc4cc5c(cc4c21)OCO5)OCO3")
"inactive"
>>> result("O=C(O)CCCCCCCC(=O)O")
"inactive"

====

Assay: Confirmation and Secondary Assay for Modulators of Hemoglobin Beta Chain Splicing at IVS2 654 locus (AID 910);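 also: HeLa cells stably carrying EGFP split by mutant beta-globin IVS2-654 intron; per-well total GFP intensity by laser scanning cytometry after 2-day treatment; % of control where 0% means no effect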
Conditions: HeLa EGFP-654 splicing reporter, GFP fluorescence, 48 h; series mostly up to 46.1 µM
Protocol: NIH Chemical Genomics Center [NCGC] NIH Molecular Libraries Screening Centers Network [MLSCN] […] NCGC Assay Protocol Summary: Confirmatory Screening. […] Plates were read in the Acumen Explorer (TTP Labtech) using 488 nm laser excitation and 500-520 nm emission PMT filter in a 1 x […] capture mode. Fluorescnet objects ranging in size from 5 to 250 uM were measured and the total peak GFP intensity for each well was used for data analysis. […]
Activity calls are given as the source filed them. Calls follow the shape of the dose curve; as a rule, active = well fitted activation curve with a large enough effect; inconclusive = small, poorly fitted or top-dose-only effect; inactive = flat fitted curve, though single readings scatter.
MEASURED ENDPOINT: outcome

>>> result("NC(=O)N1c2ccccc2C=Cc2ccccc21")
"inactive"
>>> result("CCn1nc(C(=O)O)c(=O)c2cc3c(cc21)OCO3")
"inactive"
>>> result("CC(C)NCC(O)c1cc(O)cc(O)c1 (configuration not stated)")
"inactive"
>>> result("CCCN(CCC)C(=O)C(CCC(=O)O)NC(=O)c1ccccc1 (configuration not stated)")
"inactive"
>>> result("CN1CCN(C2=Nc3ccccc3Oc3ccc(Cl)cc32)CC1")
"inactive"
>>> result("O=C(O)CCCCCCCC(=O)O")
"inactive"
>>> result("CN1CCN(CC(=O)N2c3ccccc3C(=O)Nc3cccnc32)CC1")
"inactive"
>>> result("CCCCNC(=O)NS(=O)(=O)c1ccc(C)cc1")
"inactive"
>>> result("CN(C)CCCN1c2ccccc2Sc2ccc(C(F)(F)F)cc21")
"inactive"
>>> result("CC(C)(Oc1ccc(CCNC(=O)c2ccc(Cl)cc2)cc1)C(=O)O")
"inactive"
>>> result("Cc1ccc(/C(=C\\CN2CCCC2)c2ccccn2)cc1")
"inactive"
>>> result("CN(C)CCCN1c2ccccc2Sc2ccccc21")
"inactive"

====

Assay: qHTS of pediatric cancer cell lines to identify multiple opportunities for drug repurposing: Primary screen for LAN-5 cells (AID 1347100);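 also: plate controls were DMSO neutral control for no effect and bortezomib positive control for full effect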
Conditions: LAN-5 neuroblastoma viability, CellTiter-Glo luminescence, 48 h; series mostly up to 46 µM
Inconclusive results are not listed. The source made the active and inactive calls. Calls follow the shape of the dose curve; as a rule, active = well fitted cell-killing curve with a large enough effect; inconclusive = small, poorly fitted or top-dose-only effect; inactive = no such curve, though single readings can be large or run the other way.
MEASURED ENDPOINT: activity change, negative = cytotoxic

>>> result("NC(Cc1ccc(Cl)cc1)C(=O)O (stereo unspecified)")
"0.0057% [at 0.597 µM] (inactive)"
>>> result("CNC1(C)C2CCC(C2)C1(C)C (stereo unspecified)")
"inactive"
>>> result("CC(C)NCC(O)c1cc(O)cc(O)c1 (stereo unspecified)")
"inactive"
>>> result("CN(C)C(=O)Oc1cccc([N+](C)(C)C)c1")
"inactive"
>>> result("CCOC(=O)C1=C(C)NC(C)=C(C(=O)OC)C1c1cccc(Cl)c1Cl (stereo unspecified)")
"inactive"
>>> result("CC(=O)OCC1=C(C(=O)O)N2C(=O)[C@@H](NC(=O)Cc3cccs3)[C@H]2SC1")
"inactive"
